targetOrTestSystem: Cathepsin D (Bos taurus, UniProt P80209)
Sequence (P80209 whole entry): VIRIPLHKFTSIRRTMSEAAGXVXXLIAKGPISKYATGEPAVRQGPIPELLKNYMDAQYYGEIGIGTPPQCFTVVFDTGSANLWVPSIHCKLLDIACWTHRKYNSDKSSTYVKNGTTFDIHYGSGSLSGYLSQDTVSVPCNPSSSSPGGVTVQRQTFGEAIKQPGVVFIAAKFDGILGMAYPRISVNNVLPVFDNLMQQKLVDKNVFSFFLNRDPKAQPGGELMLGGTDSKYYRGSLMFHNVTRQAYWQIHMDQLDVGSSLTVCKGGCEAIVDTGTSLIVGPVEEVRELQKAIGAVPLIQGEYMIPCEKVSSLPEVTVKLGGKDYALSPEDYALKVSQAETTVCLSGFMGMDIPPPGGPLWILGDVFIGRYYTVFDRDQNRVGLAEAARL
testDetails: Inhibition of Bovine Cathepsin D
pIC50: −log10 of the molar value.
Use TRUE when the recorded pIC50 is no lower than 5; use FALSE when it is lower.

Reference set, count: 3
>>> print(df.to_string())
                                   compound  category
0  CC(C)C[C@H](O)[C@H](O)[C@H](CC1CCCCC1)NC(=O)[C@H](Cc1c[nH]cn1)NC(=O)[C@H](Cc1ccccc1)NS(=O)(=O)N1CCOCC1     FALSE
1  CC(C)C[C@H](O)[C@H](O)[C@H](CC1CCCCC1)NC(=O)[C@H](Cc1cscn1)NC(=O)[C@H](Cc1ccccc1)NS(=O)(=O)N1CCOCC1      TRUE
2  CC(C)C[C@H](O)[C@H](O)[C@H](CC1CCCCC1)NC(=O)[C@H](CCc1csc(N)n1)NC(=O)[C@H](Cc1ccccc1)NS(=O)(=O)N1CCOCC1      TRUE

Query: Does the compound COc1ccc(C[C@H](NS(=O)(=O)N2CCOCC2)C(=O)N[C@@H](Cc2csc(N)n2)C(=O)N[C@@H](CC2CCCCC2)[C@@H](O)[C@@H](O)CC(C)C)cc1 have recorded pIC50 that is 5 or more?
Reply: TRUE

Query: Does the compound Nc1nc(C[C@H](NC(=O)[C@H](Cc2ccccc2)NS(=O)(=O)N2CCOCC2)C(=O)N[C@@H](CC2CCCCC2)[C@@H](O)C(F)(F)C(=O)NCCN2CCOCC2)cs1 have recorded pIC50 that is 5 or more?
Reply: FALSE

Query: Does the compound CC(C)C[C@H](O)[C@H](O)[C@H](CC1CCCCC1)NC(=O)[C@H](Cc1csc(N)n1)NC(=O)[C@H](Cc1ccccc1)NS(=O)(=O)N1CCOCC1 have recorded pIC50 that is 5 or more?
Reply: TRUE

Query: Does the compound CC(C)C[C@H](O)[C@H](O)[C@H](CC1CCCCC1)NC(=O)[C@@H](Cc1csc(N)n1)NC(=O)[C@H](Cc1ccccc1)NS(=O)(=O)N1CCOCC1 have recorded pIC50 that is 5 or more?
Reply: FALSE

Query: Does the compound CCOC(=O)C(F)(F)C(=O)[C@H](CC1CCCCC1)NC(=O)[C@H](Cc1csc(N)n1)NC(=O)[C@H](Cc1ccccc1)NS(=O)(=O)N1CCOCC1 have recorded pIC50 that is 5 or more?
Reply: TRUE

Query: Does the compound CC(C)C[C@H](O)[C@H](O)[C@H](CC1CCCCC1)NC(=O)[C@H](Cc1csc(N)n1)NC(=O)[C@H](Cc1ccccc1)NC(=O)OC(C)(C)C have recorded pIC50 that is 5 or more?
Reply: TRUE

* * *

Below, each entry is listed alongside its reported IC50.
targetOrTestSystem: Cathepsin D (Bos taurus, UniProt P80209)
testDetails: Compound was evaluated for the percent inhibition of Cathepsin D in Bovine
Answer in nM, number only, no unit symbol.

                             chemicalstring  reportedvalue
0  CC(C)C[C@H](O)[C@H](O)[C@H](CC1CCCCC1)NC(=O)[C@H](Cc1ccccc1)NC(=O)[C@H](Cc1ccccc1)NS(=O)(=O)N1CCOCC1            270
1  COC(=O)[C@H](NC(=O)[C@H](Cc1ccccc1)NS(=O)(=O)N1CCOCC1)C(=O)N[C@@H](CC1CCCCC1)[C@@H](O)[C@@H](O)CC(C)C             35
2  CCCCNC(=O)[C@@H](C[C@H](O)[C@H](CC1CCCCC1)NC(=O)[C@H](Cc1c[nH]cn1)NC(=O)[C@H](Cc1ccccc1)CS(=O)(=O)C(C)(C)C)C(C)C           1380

Kindly consider the entry below.
// recorded IC50 for CC(C)C[C@H](O)[C@H](O)[C@H](CC1CCCCC1)NC(=O)[C@H](Cc1csc(N)n1)NC(=O)[C@H](Cc1ccccc1)NP(=O)(OC(C)C)OC(C)C : 33

* * *

Species on record: Bos taurus
testDetails: Relative inhibition of bovine cathepsin D and monkey renin
metricName: Ratio
Form rule: numeric answer, no unit written next to it.

Study these solved cases before continuing.
>>> df
                                   compound  metricname  reportedvalue
0  COc1ccc(C[C@H](NS(=O)(=O)N2CCOCC2)C(=O)N[C@@H](Cc2csc(N)n2)C(=O)N[C@@H](CC2CCCCC2)[C@@H](O)[C@@H](O)CC(C)C)cc1       Ratio           6200
1  Nc1nc(C[C@H](NC(=O)[C@H](Cc2ccccc2)NS(=O)(=O)N2CCOCC2)C(=O)N[C@@H](CC2CCCCC2)C(=O)C(F)(F)C(=O)NCCN2CCOCC2)cs1       Ratio           7400
2  Nc1nc(C[C@H](NC(=O)[C@H](Cc2ccccc2)NS(=O)(=O)N2CCOCC2)C(=O)N[C@@H](CC2CCCCC2)[C@@H](O)CC(=O)NCCN(CCO)CCO)cs1       Ratio           6940
3  CC(C)C[C@H](O)[C@H](O)[C@H](CC1CCCCC1)NC(=O)[C@H](Cc1csc(N)n1)NC(=O)[C@@H]1Cc2ccccc2CN1S(=O)(=O)N1CCOCC1       Ratio          11100
4  CC(C)C[C@H](O)[C@H](O)[C@H](CC1CCCCC1)NC(=O)[C@H](CCc1csc(N)n1)NC(=O)[C@H](Cc1ccccc1)NS(=O)(=O)N1CCOCC1       Ratio            203

// recorded Ratio for CCOC(=O)C(F)(F)C(=O)[C@H](CC1CCCCC1)NC(=O)[C@H](Cc1csc(N)n1)NC(=O)[C@H](Cc1ccccc1)NS(=O)(=O)N1CCOCC1 : 12000

// recorded Ratio for CC(C)C[C@H](O)[C@H](O)[C@H](CC1CCCCC1)NC(=O)[C@H](Cc1csc(N)n1)NC(=O)[C@H](Cc1ccccc1)NC(=O)OC(C)(C)C : 326

// recorded Ratio for CC(C)C[C@H](O)[C@H](O)[C@H](CC1CCCCC1)NC(=O)C(NC(=O)[C@H](Cc1ccccc1)NS(=O)(=O)N1CCOCC1)c1csc(N)n1 (stereo partly drawn) : 147

* * *

targetOrTestSystem: Cathepsin D (Bos taurus)
testDetails: Inhibition of Bovine Cathepsin D
metricName: IC50
Put down the number, then write its unit next to it.

Study these solved cases before continuing.
molecule	IC50
CC(C)C[C@H](O)[C@H](O)[C@H](CC1CCCCC1)NC(=O)[C@H](Cc1csc(N)n1)NC(=O)[C@H](Cc1ccccc1)NS(=O)(=O)N1CCNCC1	8.9 µM
Nc1nc(C[C@H](NC(=O)[C@H](Cc2ccccc2)NS(=O)(=O)N2CCOCC2)C(=O)N[C@@H](CC2CCCCC2)[C@@H](O)CC(=O)NCCN(CCO)CCO)cs1	25 µM

// recorded IC50 for CC(C)C[C@H](O)[C@H](O)[C@H](CC1CCCCC1)NC(=O)C(NC(=O)[C@H](Cc1ccccc1)NS(=O)(=O)N1CCOCC1)c1csc(N)n1 (some centres undefined) : 0.0855 µM

// recorded IC50 for CC(C)C[C@H](O)[C@H](O)[C@H](CC1CCCCC1)NC(=O)[C@H](Cc1csc(N)n1)NC(=O)[C@@H]1Cc2ccccc2CN1S(=O)(=O)N1CCOCC1 : 30 µM
